- recordedConditions: in methanol, 288.15 K
measuredEndpoint: solubility (mole fraction)

COC(=O)[C@@H](N)CS.Cl: 0.0944

###

- recordedConditions: in ethanol, 283.15 K
measuredEndpoint: solubility (mole fraction)

COC(=O)[C@@H](N)CS.Cl: 0.0232

###

- recordedConditions: in isopropanol, 318.15 K
measuredEndpoint: solubility (mole fraction)

COC(=O)[C@@H](N)CS.Cl: 0.0097

###

- recordedConditions: in sec-butanol, 303.15 K
measuredEndpoint: solubility (mole fraction)

COC(=O)[C@@H](N)CS.Cl: 0.00416

###

- recordedConditions: in acetonitrile, 318.15 K
measuredEndpoint: solubility (mole fraction)

COC(=O)[C@@H](N)CS.Cl: 0.00091

###

- recordedConditions: in sec-butanol, 313.15 K
measuredEndpoint: solubility (mole fraction)

COC(=O)[C@@H](N)CS.Cl: 0.00513

###

- recordedConditions: in acetonitrile, 288.15 K
measuredEndpoint: solubility (mole fraction)

COC(=O)[C@@H](N)CS.Cl: 0.00029

###

- recordedConditions: in isobutanol, 288.15 K
measuredEndpoint: solubility (mole fraction)

COC(=O)[C@@H](N)CS.Cl: 0.00437

###

- recordedConditions: in ethanol, 313.15 K
measuredEndpoint: solubility (mole fraction)

COC(=O)[C@@H](N)CS.Cl: 0.0536

###

- recordedConditions: in sec-butanol, 283.15 K
measuredEndpoint: solubility (mole fraction)

COC(=O)[C@@H](N)CS.Cl: 0.00252

###

- recordedConditions: in n-pentanol, 333.15 K
measuredEndpoint: solubility (mole fraction)

COC(=O)[C@@H](N)CS.Cl: 0.0236

###

- recordedConditions: in 1,4-dioxane, 323.15 K
measuredEndpoint: solubility (mole fraction)

COC(=O)[C@@H](N)CS.Cl: 0.00269

###

- recordedConditions: in n-pentanol, 313.15 K
measuredEndpoint: solubility (mole fraction)

COC(=O)[C@@H](N)CS.Cl: 0.0111

###

- recordedConditions: in n-propanol, 308.15 K
measuredEndpoint: solubility (mole fraction)

COC(=O)[C@@H](N)CS.Cl: 0.0161

###

- recordedConditions: in methanol, 283.15 K
measuredEndpoint: solubility (mole fraction)

COC(=O)[C@@H](N)CS.Cl: 0.0906

###

- recordedConditions: in 1,4-dioxane, 288.15 K
measuredEndpoint: solubility (mole fraction)

COC(=O)[C@@H](N)CS.Cl: 0.00083

###

- recordedConditions: in isopropanol, 328.15 K
measuredEndpoint: solubility (mole fraction)

COC(=O)[C@@H](N)CS.Cl: 0.0153

###

- recordedConditions: in ethyl acetate, 303.15 K
measuredEndpoint: solubility (mole fraction)

COC(=O)[C@@H](N)CS.Cl: 0.00018

###

- recordedConditions: in n-pentanol, 328.15 K
measuredEndpoint: solubility (mole fraction)

COC(=O)[C@@H](N)CS.Cl: 0.0187

###

- recordedConditions: in 2-butanone, 308.15 K
measuredEndpoint: solubility (mole fraction)

COC(=O)[C@@H](N)CS.Cl: 0.00192

###

- recordedConditions: in acetonitrile, 328.15 K
measuredEndpoint: solubility (mole fraction)

COC(=O)[C@@H](N)CS.Cl: 0.00104

###

- recordedConditions: in acetonitrile, 303.15 K
measuredEndpoint: solubility (mole fraction)

COC(=O)[C@@H](N)CS.Cl: 0.00043
